- System Name: Histamine H2 (Homo sapiens, UniProt P25021)
- Sequence (P25021 whole entry): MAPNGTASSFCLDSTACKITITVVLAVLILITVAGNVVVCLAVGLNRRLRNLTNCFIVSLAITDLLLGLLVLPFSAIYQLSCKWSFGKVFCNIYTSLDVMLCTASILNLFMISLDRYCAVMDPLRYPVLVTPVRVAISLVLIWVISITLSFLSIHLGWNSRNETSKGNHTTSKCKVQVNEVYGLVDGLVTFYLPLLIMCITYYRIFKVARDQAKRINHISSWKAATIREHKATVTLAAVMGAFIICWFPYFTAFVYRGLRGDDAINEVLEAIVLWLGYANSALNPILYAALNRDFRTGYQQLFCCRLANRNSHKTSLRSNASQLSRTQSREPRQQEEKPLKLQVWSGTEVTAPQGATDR
Property: Ki (nM)
Numbers only, in nM.

Qu. Fill in: Ki of CN[C@H]1CC[C@@H](c2ccc(Cl)c(Cl)c2)c2ccc(C#CCCCO)cc21 [compound Ia, hydroiodide] is ___
Ans. 1280

Recorded values, source patent US20100130549A1.
